# Test system: FXR:RXRa (NR concentration 270 nM, RXRa partner concentration 90 nM)
# assay.summary: PBM binding z-score (relative to random genomic background probes); higher = stronger binding; sequences stand for … in GC…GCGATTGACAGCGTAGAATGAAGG
The threshold is inclusive: PBM binding z-score of exactly 6 counts as YES; values below receive NO.

For orientation, consider the following solved cases.
{"sequence.input": "ATATGTAGGTGATCGGGTCATTCAGTTTGCGCAT", "target.or.system": "FXR:RXRa (NR concentration 270 nM, RXRa partner concentration 90 nM)", "group.label": "NO"}
{"sequence.input": "ACTTACGGGTAAACGAGGTTATAGCACGCGTATA", "target.or.system": "FXR:RXRa (NR concentration 270 nM, RXRa partner concentration 90 nM)", "group.label": "NO"}
{"sequence.input": "CAAATTAGGTCACGAAAGGTCAAAGTCGAATGAC", "target.or.system": "FXR:RXRa (NR concentration 270 nM, RXRa partner concentration 90 nM)", "group.label": "YES"}
{"sequence.input": "CCTACTGGGCCATTAGGTCATTGATATCAACGTT", "target.or.system": "FXR:RXRa (NR concentration 270 nM, RXRa partner concentration 90 nM)", "group.label": "NO"}
{"sequence.input": "CTACCAAGGTGAACAAAGTCGTTGATTACTATTC", "target.or.system": "FXR:RXRa (NR concentration 270 nM, RXRa partner concentration 90 nM)", "group.label": "NO"}
{"sequence.input": "GGAACTAGGGCATTCGAGTTGATAGCATGGCGAT", "target.or.system": "FXR:RXRa (NR concentration 270 nM, RXRa partner concentration 90 nM)", "group.label": "NO"}

Does the reported PBM binding z-score for `ATATGTAGGTTAAGGGTGATTCAGGTTGGTTCGC` fall at or above the 6 mark?
NO

Does the reported PBM binding z-score for `CGTCCAAGCTCAAGGTCAGTGAAAGAGACTCGAA` fall at or above the 6 mark?
NO

Does the reported PBM binding z-score for `ACTAGTAGTTGAGACGAGGGCAACCGATAGGTTG` fall at or above the 6 mark?
NO

Does the reported PBM binding z-score for `CGAACGTGGGCATGAGTTGATAGCAAATGCCGAT` fall at or above the 6 mark?
NO

Does the reported PBM binding z-score for `CGTCAAAGTTCAACTAAGGCAACGTAAAGCACGC` fall at or above the 6 mark?
YES
